- measured_target: T1, mouse Siglec15-his protein (mouse)
- T1 construct: In house made
- T1 chain: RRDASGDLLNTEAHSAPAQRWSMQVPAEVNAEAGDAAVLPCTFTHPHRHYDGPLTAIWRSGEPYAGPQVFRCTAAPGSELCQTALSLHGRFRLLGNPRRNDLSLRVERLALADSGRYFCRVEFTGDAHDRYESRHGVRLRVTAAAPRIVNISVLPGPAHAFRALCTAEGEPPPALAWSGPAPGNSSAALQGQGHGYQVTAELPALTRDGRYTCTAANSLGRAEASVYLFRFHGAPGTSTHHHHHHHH
- measurement_description: SPR Biacore T200, antibody captured by anti-human IgG, antigen as analyte, 1:1 fit
Catalogue of pKd readings, one per entry.
The value called pKd is obtained by taking minus log10 of the concentration in mol/L.

binder	metric	recorded_value
A2A5C7E8-2 (antibody, human IgG1, kappa, V domains shown, Variant of A2A5C7E8 modified in VH CDR2 (X1 = E)) VH: EVQLVQSGAEVKKPGESLRISCKGSGYSFTTYWISWVRQMPGKGLEWMGLIDPSESYTNYSPSFQGHVTISTDKSISTAYLQWSSLKASDTAMYYCARGGYYGSEEDYWGQGTLVTVSS VL: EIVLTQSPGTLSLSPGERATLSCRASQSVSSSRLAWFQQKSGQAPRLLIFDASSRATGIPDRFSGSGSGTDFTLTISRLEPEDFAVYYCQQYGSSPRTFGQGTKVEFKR	pKd	9.73
A2A5C7E8-3 (antibody, human IgG1, kappa, V domains shown, Variant of A2A5C7E8 modified in VH CDR2 (X2 = K)) VH: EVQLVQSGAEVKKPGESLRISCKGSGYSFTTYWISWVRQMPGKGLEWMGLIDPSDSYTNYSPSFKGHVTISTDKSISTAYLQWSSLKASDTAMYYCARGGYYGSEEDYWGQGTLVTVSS VL: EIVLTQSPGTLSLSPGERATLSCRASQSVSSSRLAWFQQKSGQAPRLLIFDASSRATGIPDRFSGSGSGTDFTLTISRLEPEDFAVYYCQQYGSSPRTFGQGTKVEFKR	pKd	10.13

Now let's try a different one.
### Prompt Note pKd for the binder shown: A2A5C7E8 (antibody, V domains shown, Fully human antibody from transgenic mouse hybridoma; also called A2A5C7E8-1) VH: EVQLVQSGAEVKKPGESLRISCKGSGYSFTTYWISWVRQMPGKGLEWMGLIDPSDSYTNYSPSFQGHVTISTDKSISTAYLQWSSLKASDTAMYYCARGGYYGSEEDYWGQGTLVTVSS VL: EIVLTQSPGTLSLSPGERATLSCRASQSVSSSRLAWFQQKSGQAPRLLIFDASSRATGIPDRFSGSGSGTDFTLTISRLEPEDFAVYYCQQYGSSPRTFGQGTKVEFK
### Response 10.06
